Please respond with reported pKd for every item in the list.
System tested: IgV domain of human SIRPα v2 (Homo sapiens, SIRPα allele v2 …, strain)
Assay explanation: SPR
The meaning of pKd here: minus log10 of the concentration in molar units.

input: Dear colleague, I am looking for the recorded pKd of the following binder: anti-SIRPα antibody clone 3, full-length IgG1 (antibody, V domains shown) VH: AVTLDESGGGLQTPGGALSLVCKASGFIFSDYGMNWVRQAPGKGLEFVAQITSGSRTYYGAAVKGRATISRDNRQSTVKLQLNNLRAEDTGIYFCARDFGSGVGSIDAWGNGTEVIVSS VL: ALTQPASVSANLGGTVKITCSGSRGRYGWYQQRSPGSAPVTVIYRDNQRPSNIPSRFSSSTSGSTSTLTITGVQADDESVYFCGSYDGSIDIFGAGTTLTVL
output: 10.12

input: Could you do the same for anti-SIRPα antibody clone 119, full-length IgG1 (antibody, V domains shown) VH: DVQLLESGGGVVQPGGSLRLSCAASGFSFSNFAMTWVRQAPGEGLEWVSTIGSGDTYYADSVKGRFTISRDNSKNTLYLQMNSLRAEDTAVYYCAKDSTVSWSGDFFDYWGQGTLVTVSS VL: EIVLTQSPATLSVSPGERATFSCRASQNVKNDLAWYQQRPGQAPRLLIYAARIRETGIPERFSGSGSGTEFTLTITSLQSEDFAVYYCQQYYDWPPFTFGGGTKVEIK , please?
output: 10.17

input: Could you do the same for anti-SIRPα antibody clone 115, full-length IgG1 (antibody, V domains shown) VH: DVQLVESGGGVVRPGESLRLSCAASGFSFSSYAMNWVRQAPGEGLEWVSRINSGGGGTDYAESVKGRFTISRDNSENTLYLQMNSLRAEDTAVYYCAKQYDWNSFFDYWGLGALVTVSS VL: ETVLTQSPATLSVSPGERATLSCRASQTVGSKLAWHQQKPGQAPRLLIYDATNRATGISDRFSGSGSGTDFTLTISSLQTEDSAVYYCQQYYYWPPYRFGGGTKVEIK , please?
output: 8.73

input: Could you do the same for anti-SIRPα clone 218, scFv-Fc (scFv, V domains shown) VH: DVQLVESGGGVVRPGESLTLSCTASGFTFTSSTMNWVRQAPGEGLDWVSSISTSGVITYYADSVKGRATISRDNSKNTLYLRLFSLRADDTAIYYCATDTFDHWGPGTLVTVSS VL: ALTQPASVSANPGETVKITCFGSSGNYGWFQQKSPGSAPVTVIHYNNKRPSDIPSRFSGSKSGSTGTLTITGVRAEDEAVYFCGAWETGSATFGAGTTLTVL , please?
output: 9.56
